Listed here: items and their measured Euclidean distance.
System: A549
Assay: Euclidean distance of Cell Painting phenotypic profile (signed KS, 77 features) to DMSO centroid (dimensionless distance); 5 or 10 uM (library dependent); higher = stronger phenotypic change vs DMSO (phenoactivity)
Conditions: 48 h
Structures can show the parent of a compound that is named as a salt.
Kindly provide the number alone.

The cases that follow already have their Euclidean distance on record.
compound=O=c1cc(CO)occ1O measurement_name="Euclidean distance" experimental_result=0.713
compound=O=c1c2ccccc2nc2n1CCc1c-2[nH]c2ccccc12 measurement_name="Euclidean distance" experimental_result=1.05
compound="CCCCOc1cc(C(=O)NCCN(CC)CC)c2ccccc2n1 [Dibucaine HCl]" measurement_name="Euclidean distance" experimental_result=1.68

Short answer for COCC[n+]1c2c(n(Cc3cnccn3)c1C)C(=O)c1ccccc1C2=O [YM155 (Sepantronium Bromide)] : Euclidean distance was 5.14
